All figures here come from patent US20050101595A1.

- subject of test: human CDK4 and genetically truncated (1-264) cyclin D3 (Homo sapiens, UniProt P11802)
- Sequence (P11802 whole entry, the tested form may be a part): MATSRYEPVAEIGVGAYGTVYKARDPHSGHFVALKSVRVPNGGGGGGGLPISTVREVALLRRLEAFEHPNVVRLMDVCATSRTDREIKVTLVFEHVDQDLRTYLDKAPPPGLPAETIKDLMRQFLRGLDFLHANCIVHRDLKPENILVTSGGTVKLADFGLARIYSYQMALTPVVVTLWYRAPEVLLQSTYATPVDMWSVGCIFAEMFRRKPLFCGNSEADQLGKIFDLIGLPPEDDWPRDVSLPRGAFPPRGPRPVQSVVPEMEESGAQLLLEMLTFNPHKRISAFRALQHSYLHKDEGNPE
- Sequence (P30281 1-264 partner): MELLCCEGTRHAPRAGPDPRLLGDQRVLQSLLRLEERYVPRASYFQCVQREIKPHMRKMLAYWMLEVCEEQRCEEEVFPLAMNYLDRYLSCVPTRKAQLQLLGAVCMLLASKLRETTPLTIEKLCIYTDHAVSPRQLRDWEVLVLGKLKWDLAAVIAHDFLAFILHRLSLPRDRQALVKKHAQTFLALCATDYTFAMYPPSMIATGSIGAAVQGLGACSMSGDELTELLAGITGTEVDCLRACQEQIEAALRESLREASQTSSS
- test summary: Inhibition of CDK4/Cyclin D Retinoblastoma Kinase Activity
- Assay type: biochemical
- stated conditions: 0.03 μM compound; Table 2
CDK4 % Inhibition at 0.03 μM reference

{"molecule": "CCOC(=O)CCCCCNC(=O)N1CCC(Nc2nc(N)c(C(=O)c3c(F)cccc3F)s2)CC1 [Example O70]", "subject of test": "human CDK4 and genetically truncated (1-264) cyclin D3 (Homo sapiens, UniProt P11802)", "CDK4 % Inhibition at 0.03 μM [%]": 7}
{"molecule": "COc1ccc(OC)c(NC(=O)N2CCC(Nc3nc(N)c(C(=O)c4c(F)cccc4F)s3)CC2)c1 [Example O9]", "subject of test": "human CDK4 and genetically truncated (1-264) cyclin D3 (Homo sapiens, UniProt P11802)", "CDK4 % Inhibition at 0.03 μM [%]": 2}
{"molecule": "COc1ccc(C)cc1NC(=O)N1CCC(Nc2nc(N)c(C(=O)c3c(F)cccc3F)s2)CC1 [Example O50]", "subject of test": "human CDK4 and genetically truncated (1-264) cyclin D3 (Homo sapiens, UniProt P11802)", "CDK4 % Inhibition at 0.03 μM [%]": 13}
{"molecule": "COC(=O)[C@H](COC(C)(C)C)NC(=O)N1CCC(Nc2nc(N)c(C(=O)c3c(F)cccc3F)s2)CC1 [Example O79]", "subject of test": "human CDK4 and genetically truncated (1-264) cyclin D3 (Homo sapiens, UniProt P11802)", "CDK4 % Inhibition at 0.03 μM [%]": 8}
{"molecule": "Nc1nc(NC2CCN(C(=O)Nc3ccccc3C(F)(F)F)CC2)sc1C(=O)c1c(F)cccc1F [Example O10]", "subject of test": "human CDK4 and genetically truncated (1-264) cyclin D3 (Homo sapiens, UniProt P11802)", "CDK4 % Inhibition at 0.03 μM [%]": 5}
{"molecule": "Nc1nc(NC2CCN(C(=O)NC(=O)c3ccccc3)CC2)sc1C(=O)c1c(F)cccc1F [Example O26]", "subject of test": "human CDK4 and genetically truncated (1-264) cyclin D3 (Homo sapiens, UniProt P11802)", "CDK4 % Inhibition at 0.03 μM [%]": 10}
{"molecule": "CCOC(=O)C(NC(=O)N1CCC(Nc2nc(N)c(C(=O)c3c(F)cccc3F)s2)CC1)C(C)C (stereo not shown) [Example O74]", "subject of test": "human CDK4 and genetically truncated (1-264) cyclin D3 (Homo sapiens, UniProt P11802)", "CDK4 % Inhibition at 0.03 μM [%]": 102}

----------
- subject of test: CDK2/Cyclin A (Homo sapiens, UniProt P24941)
- test summary: Inhibition of CDK2/Cyclin A Retinoblastoma Kinase Activity
- Format: biochemical
- stated conditions: 0.03 μM compound; Table 2
Reported CDK2 % Inhibition At 0.03 μM values are given for each entry in this list.

{"compound": "Nc1nc(NC2CCN(C(=O)Nc3cccc(F)c3)CC2)sc1C(=O)c1c(F)cccc1F", "units of measure": "%", "CDK2 % Inhibition At 0.03 μM": 37}
{"compound": "Cc1ccc(NC(=O)N2CCC(Nc3nc(N)c(C(=O)c4c(F)cccc4F)s3)CC2)c(C)c1", "units of measure": "%", "CDK2 % Inhibition At 0.03 μM": 33}
{"compound": "Nc1nc(NC2CCN(C(=O)Nc3ccc(-c4ccccc4)cc3)CC2)sc1C(=O)c1c(F)cccc1F", "units of measure": "%", "CDK2 % Inhibition At 0.03 μM": 28}
{"compound": "COc1ccc(C)cc1NC(=O)N1CCC(Nc2nc(N)c(C(=O)c3c(F)cccc3F)s2)CC1", "units of measure": "%", "CDK2 % Inhibition At 0.03 μM": 37}
{"compound": "C[Si](C)(C)NC(=O)N1CCC(Nc2nc(N)c(C(=O)c3c(F)cccc3F)s2)CC1", "units of measure": "%", "CDK2 % Inhibition At 0.03 μM": 34}
{"compound": "Nc1nc(NC2CCN(C(=O)Nc3ccccc3)CC2)sc1C(=O)c1c(F)cccc1F", "units of measure": "%", "CDK2 % Inhibition At 0.03 μM": 34}
{"compound": "CC(NC(=O)N1CCC(Nc2nc(N)c(C(=O)c3c(F)cccc3F)s2)CC1)c1cccc2ccccc12 (centres unmarked)", "units of measure": "%", "CDK2 % Inhibition At 0.03 μM": 31}
{"compound": "Nc1nc(NC2CCN(C(=O)Nc3ccccc3Cl)CC2)sc1C(=O)c1c(F)cccc1F", "units of measure": "%", "CDK2 % Inhibition At 0.03 μM": 36}

----------
- subject of test: human CDK4 and genetically truncated (1-264) cyclin D3 (Homo sapiens, UniProt P11802)
- test summary: Inhibition of CDK4/Cyclin D Retinoblastoma Kinase Activity
- stated conditions: apparent Ki, CDK4/truncated cyclin D3, Rb fragment substrate, 25 μM ATP
Structures can show the parent of a compound that is named as a salt.
log10(Ki) reference
experimental readout: log10(Ki) (log10 of the value in nM)

{"compound": "C[C@@H]1CN(c2ccc(S(=O)(=O)N3CCC(Nc4nc(N)c(C(=O)c5c(F)cccc5F)s4)CC3)cc2)C[C@H](C)N1", "log10(Ki)": -0.21}
{"compound": "Nc1nc(NC2CCN(S(=O)(=O)c3ccc(OCCN4CCCCC4)nc3)CC2)sc1C(=O)c1c(F)cccc1F [Example H6, Dihydrochloride]", "log10(Ki)": -0.42}
{"compound": "COc1ccc(/C=C/C(=O)N2CCC(Nc3nc(N)c(C(=O)c4c(F)cccc4F)s3)CC2)c(Cl)c1OC", "log10(Ki)": 1.60}
{"compound": "N#C/C(=C\\c1cccc(O)c1)C(=O)N1CCC(Nc2nc(N)c(C(=O)c3c(F)cccc3F)s2)CC1 [Example D13, Trifluoroacetic Acid Salt]", "log10(Ki)": 0.26}
{"compound": "Nc1nc(NC2CCN(S(=O)(=O)c3ccc(CN4CCOCC4)cc3)CC2)sc1C(=O)c1c(F)cccc1F [Example J8, Hydrochloride Salt]", "log10(Ki)": 0.08}
{"compound": "Nc1nc(NC2CCN(S(=O)(=O)c3ccc(O)nc3)CC2)sc1C(=O)c1c(F)cccc1F [Example H1, Trifluoroacetic Acid Salt]", "log10(Ki)": -0.14}
{"compound": "CN(CCO)c1ccc(S(=O)(=O)N2CCC(Nc3nc(N)c(C(=O)c4c(F)cccc4F)s3)CC2)cn1 [Example G10, Trifluoroacetic Acid Salt]", "log10(Ki)": 0.08}

----------
- subject of test: CDK2/Cyclin A (Homo sapiens, UniProt P24941)
- test summary: Inhibition of CDK2/Cyclin A Retinoblastoma Kinase Activity
- Type: biochemical
- stated conditions: read-out: % inhibition of CDK2 (@ 0.05 μM), compound at 0.05 μM
experimental readout: inhibition at 0.05 µM (%)

{"compound": "Nc1nc(NC2CCN(S(=O)(=O)CCCN3CCCCC3CCO)CC2)sc1C(=O)c1c(F)cccc1F (stereo not drawn)", "meas value": 80}
{"compound": "COCC(C)NCCCS(=O)(=O)N1CCC(Nc2nc(N)c(C(=O)c3c(F)cccc3F)s2)CC1 (stereo not drawn)", "meas value": 80}
{"compound": "NC(=O)CCNCCCS(=O)(=O)N1CCC(Nc2nc(N)c(C(=O)c3c(F)cccc3F)s2)CC1", "meas value": 79}
{"compound": "Nc1nc(NC2CCN(S(=O)(=O)CCCNC3CCCNC3=O)CC2)sc1C(=O)c1c(F)cccc1F (stereo not drawn)", "meas value": 83}
{"compound": "Cc1cccc(NCCCS(=O)(=O)N2CCC(Nc3nc(N)c(C(=O)c4c(F)cccc4F)s3)CC2)n1", "meas value": 91}
{"compound": "CCc1ccc(C)cc1NCCCS(=O)(=O)N1CCC(Nc2nc(N)c(C(=O)c3c(F)cccc3F)s2)CC1", "meas value": 88}
{"compound": "Cc1ccnc(NCCCS(=O)(=O)N2CCC(Nc3nc(N)c(C(=O)c4c(F)cccc4F)s3)CC2)c1", "meas value": 85}
{"compound": "CCCCC(CO)NCCCS(=O)(=O)N1CCC(Nc2nc(N)c(C(=O)c3c(F)cccc3F)s2)CC1 (stereo not drawn)", "meas value": 89}
{"compound": "Nc1nc(NC2CCN(S(=O)(=O)CCCN3CCCCC3)CC2)sc1C(=O)c1c(F)cccc1F", "meas value": 84}
{"compound": "Nc1nc(NC2CCN(S(=O)(=O)CCCNCCCc3c[nH]cn3)CC2)sc1C(=O)c1c(F)cccc1F", "meas value": 82}
{"compound": "CCN(CC)CCN(C)CCCS(=O)(=O)N1CCC(Nc2nc(N)c(C(=O)c3c(F)cccc3F)s2)CC1", "meas value": 76}
{"compound": "Nc1nc(NC2CCN(S(=O)(=O)CCCNCCC3CCCN3)CC2)sc1C(=O)c1c(F)cccc1F (stereo not drawn)", "meas value": 80}
{"compound": "Nc1nc(NC2CCN(S(=O)(=O)CCCNC3CCOCC3)CC2)sc1C(=O)c1c(F)cccc1F", "meas value": 84}
{"compound": "CCCN(CCO)CCCS(=O)(=O)N1CCC(Nc2nc(N)c(C(=O)c3c(F)cccc3F)s2)CC1", "meas value": 82}
{"compound": "CCC(O)CNCCCS(=O)(=O)N1CCC(Nc2nc(N)c(C(=O)c3c(F)cccc3F)s2)CC1 (stereo not drawn)", "meas value": 79}
